Each entry below lists one item and its recorded EC50 value.
Biological target: SST5 (Homo sapiens)
Assay: Hit Hunter cAMP XS+ assay, SST5 activation via Gi (reduction of forskolin-stimulated cAMP)
Type: cell-based
Details: reduction of forskolin-stimulated cAMP; 4-parameter logistic fit; read-out: SST5 pEC50 (converted)
*1 amine or outer side, *2 acyl side, *3 side chain or, on linkers, in order; H or OH if unused. Where a SMILES comes first, the peptide text is derived from it. Side-chain parts run from the residue outwards. [ ]: non-standard residue; d: D form. The star is where a group is joined. Ala(piperidin-4-yl) = O=C([C@H](CC1CCN([*:3])CC1)N[*:1])[*:2]; dTrp(4-OMe) = COc1cccc2[nH]cc(C[C@@H](N)C(=O)O)c12; X2 = O=C([C@@H]1C[C@@H](Oc2ccncc2)CN1[*:1])[*:2]; Ala(piperazin-1-yl) = N[C@@H](CN1CCNCC1)C(=O)O; X5 = CN([C@@H](CC1CCNCC1)C(=O)[*:2])[*:1]; Morpholine(3S-CO) = O=C(O)[C@@H]1COCCN1; Ethylenediamine = C(CN[*:2])N[*:1]; d(hPhe) = N[C@H](CCc1ccccc1)C(=O)O; Hyp = O=C(O)[C@@H]1C[C@@H](O)CN1; hPhe = N[C@@H](CCc1ccccc1)C(=O)O; 3Pal = N[C@@H](Cc1cccnc1)C(=O)O; Cyclohexylmethyl = C1CCC(C*)CC1; Tic = O=C(O)[C@@H]1Cc2ccccc2CN1; CO = O=C([*:1])[*:2]; Bn = c1ccc(C*)cc1
Hi! Could you send only the number? It should be in nM, unit omitted.

# annotated cases, reported EC50 shown
# compound, EC50, nM
data = [
    ("CN1C(=O)[C@@H](Cc2c[nH]c3ccccc23)NC(=O)[C@@H](CCc2ccccc2)NC(=O)[C@@H]2COCCN2C(=O)[C@@H]2Cc3ccccc3CN2C(=O)[C@H](Cc2ccc(OCc3ccccc3)cc2)NC(=O)[C@@H]1CC1CCNCC1 [Example 32] (cyclo([Tic][Morpholine(3S-CO)][d(hPhe)][dW][X5]Y(Bn)))", 1.26),
    ("COc1cccc2[nH]cc(C[C@H]3NC(=O)[C@H](CCc4ccccc4)NC(=O)[C@@H]4COCCN4C(=O)[C@@H]4Cc5ccccc5CN4C(=O)[C@H](Cc4ccc(OCc5ccccc5)cc4)NC(=O)[C@H](CN4CCNCC4)NC3=O)c12 [Example 68] (cyclo([Tic][Morpholine(3S-CO)][hPhe][dTrp(4-OMe)][Ala(piperazin-1-yl)]Y(Bn)))", 0.316),
    ("O=C1N[C@@H](Cc2ccc(OCc3ccccc3)cc2)C(=O)N2Cc3ccccc3C[C@H]2C(=O)N2CCOC[C@H]2C(=O)N[C@@H](CCc2ccccc2)C(=O)N[C@H](Cc2c[nH]c3ccccc23)C(=O)N[C@H]1CN1CCNCC1 [Example 31] (cyclo([Tic][Morpholine(3S-CO)][hPhe][dW][Ala(piperazin-1-yl)]Y(Bn)))", 0.0631),
    ("O=C1N[C@@H](Cc2cccnc2)C(=O)N2C[C@H](Oc3ccncc3)C[C@H]2C(=O)N[C@@H](CCc2ccccc2)C(=O)N[C@H](Cc2c[nH]c3ccccc23)C(=O)N[C@@H](CC2CCNCC2)C(=O)N[C@H]1Cc1ccc(OCc2ccccc2)cc1 [Example 22] (cyclo([3Pal][X2][hPhe][dW][Ala(piperidin-4-yl)]Y(Bn)))", 0.501),
    ("NCCNC(=O)O[C@@H]1C[C@H]2C(=O)N[C@H](CCc3ccccc3)C(=O)N[C@H](Cc3c[nH]c4ccccc34)C(=O)N[C@@H](CC3CCNCC3)C(=O)N[C@@H](Cc3ccc(OCC4CCCCC4)cc3)C(=O)N[C@@H](Cc3cccnc3)C(=O)N2C1 [Example 53] (cyclo([3Pal][Hyp]([CO-Ethylenediamine])[d(hPhe)][dW][Ala(piperidin-4-yl)]Y(Cyclohexylmethyl)))", 31.6),
]

Next item in the queue.
Annotate the compound NCCNC(=O)O[C@@H]1C[C@H]2C(=O)N[C@H](CCc3ccccc3)C(=O)N[C@@H](Cc3c[nH]c4ccccc34)C(=O)N[C@@H](CN3CCNCC3)C(=O)N[C@@H](Cc3ccc(OCc4ccccc4)cc3)C(=O)N[C@@H](Cc3cccnc3)C(=O)N2C1 [Example 33] (cyclo([3Pal][Hyp]([CO-Ethylenediamine])[d(hPhe)]W[Ala(piperazin-1-yl)]Y(Bn))) with its measured EC50.
39.8

====

Molecular target: SST5 (Homo sapiens, UniProt P35346)
Sequence (P35346 whole entry): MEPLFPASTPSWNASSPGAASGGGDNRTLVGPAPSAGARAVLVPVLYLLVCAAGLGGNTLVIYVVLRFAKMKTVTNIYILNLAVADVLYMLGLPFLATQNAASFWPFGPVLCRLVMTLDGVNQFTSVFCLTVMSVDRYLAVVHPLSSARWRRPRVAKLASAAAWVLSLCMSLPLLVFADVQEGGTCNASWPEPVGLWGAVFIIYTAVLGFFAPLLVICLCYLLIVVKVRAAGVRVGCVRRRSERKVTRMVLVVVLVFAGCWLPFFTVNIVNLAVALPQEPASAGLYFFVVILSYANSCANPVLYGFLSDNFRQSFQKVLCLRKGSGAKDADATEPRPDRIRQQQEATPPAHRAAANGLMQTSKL
Assay: Hit Hunter cAMP XS+ assay, SST5 activation via Gi (reduction of forskolin-stimulated cAMP)
Assay type: cell-based
Settings: selectivity for SST5 over SST2
*1 amine or outer side, *2 acyl side, *3 side chain or, on linkers, in order; H or OH if unused. Where a SMILES comes first, the peptide text is derived from it. Side-chain parts run from the residue outwards. [ ]: non-standard residue; d: D form. The star is where a group is joined. Ala(piperidin-4-yl) = O=C([C@H](CC1CCN([*:3])CC1)N[*:1])[*:2]; dTrp(4-OMe) = COc1cccc2[nH]cc(C[C@@H](N)C(=O)O)c12; Ala(piperazin-1-yl) = N[C@@H](CN1CCNCC1)C(=O)O; Phe(4-Cl) = N[C@@H](Cc1ccc(Cl)cc1)C(=O)O; Morpholine(3S-CO) = O=C(O)[C@@H]1COCCN1; Ethylenediamine = C(CN[*:2])N[*:1]; d(hPhe) = N[C@H](CCc1ccccc1)C(=O)O; Hyp = O=C(O)[C@@H]1C[C@@H](O)CN1; hPhe = N[C@@H](CCc1ccccc1)C(=O)O; Tic = O=C(O)[C@@H]1Cc2ccccc2CN1; Phg = N[C@H](C(=O)O)c1ccccc1; CO = O=C([*:1])[*:2]; Bn = c1ccc(C*)cc1
outcome.measure: SST5/2 Selectivity
Enter a number only.

# annotated cases, reported SST5/2 Selectivity shown
# compound, SST5/2 Selectivity
rows = [
    ("NCCNC(=O)O[C@@H]1C[C@H]2C(=O)N[C@H](CCc3ccccc3)C(=O)N[C@H](Cc3c[nH]c4ccccc34)C(=O)N[C@@H](CN3CCNCC3)C(=O)N[C@@H](Cc3ccc(OCc4ccccc4)cc3)C(=O)N[C@@H](Cc3ccc(Cl)cc3)C(=O)N2C1 [Example 30] (cyclo([Hyp]([CO-Ethylenediamine])[d(hPhe)][dW][Ala(piperazin-1-yl)]Y(Bn)[Phe(4-Cl)]))", 214.2),
    ("COc1ccc(C[C@@H]2NC(=O)[C@H](Cc3ccc(OCc4ccccc4)cc3)NC(=O)[C@H](CC3CCNCC3)NC(=O)[C@@H](Cc3c[nH]c4ccccc34)NC(=O)[C@H](c3ccccc3)NC(=O)[C@@H]3C[C@@H](OC(=O)NCCN)CN3C2=O)cc1 [Example 9] (cyclo([Hyp]([CO-Ethylenediamine])[Phg][dW][Ala(piperidin-4-yl)]Y(Bn)Y(Me)))", 23.3),
]

Next item in the queue.
Annotate the compound COc1cccc2[nH]cc(C[C@H]3NC(=O)[C@H](CCc4ccccc4)NC(=O)[C@@H]4COCCN4C(=O)[C@@H]4Cc5ccccc5CN4C(=O)[C@H](Cc4ccc(OCc5ccccc5)cc4)NC(=O)[C@H](CN4CCNCC4)NC3=O)c12 [Example 68] (cyclo([Tic][Morpholine(3S-CO)][hPhe][dTrp(4-OMe)][Ala(piperazin-1-yl)]Y(Bn))) with its measured SST5/2 Selectivity.
791.6

====

Molecular target: SST5 (Homo sapiens)
Experiment: Hit Hunter cAMP XS+ assay, SST5 activation via Gi (reduction of forskolin-stimulated cAMP)
Format: cell-based
Conditions: reduction of forskolin-stimulated cAMP; 4-parameter logistic fit; read-out: SST5 pEC50 (converted)
*1 amine or outer side, *2 acyl side, *3 side chain or, on linkers, in order; H or OH if unused. Where a SMILES comes first, the peptide text is derived from it. Side-chain parts run from the residue outwards. [ ]: non-standard residue; d: D form. The star is where a group is joined. Ala(piperidin-4-yl) = O=C([C@H](CC1CCN([*:3])CC1)N[*:1])[*:2]; Ethylenediamine = C(CN[*:2])N[*:1]; Hyp = O=C(O)[C@@H]1C[C@@H](O)CN1; hPhe = N[C@@H](CCc1ccccc1)C(=O)O; Tic = O=C(O)[C@@H]1Cc2ccccc2CN1; Phg = N[C@H](C(=O)O)c1ccccc1; CO = O=C([*:1])[*:2]; Bn = c1ccc(C*)cc1
outcome.measure: EC50 (nM)
Hi! Could you send only the number? It should be in nM, unit omitted.

# compound, EC50, nM
data = [
    ("NCCNC(=O)O[C@@H]1C[C@H]2C(=O)N[C@@H](CCc3ccccc3)C(=O)N[C@@H](Cc3c[nH]c4ccccc34)C(=O)N[C@@H](CC3CCNCC3)C(=O)N[C@@H](Cc3ccc(OCc4ccccc4)cc3)C(=O)N3Cc4ccccc4C[C@H]3C(=O)N2C1 [Example 19] (cyclo([Hyp]([CO-Ethylenediamine])[hPhe]W[Ala(piperidin-4-yl)]Y(Bn)[Tic]))", 20),
]

Next item in the queue.
Annotate the compound COc1ccc(C[C@@H]2NC(=O)[C@H](Cc3ccc(OCc4ccccc4)cc3)NC(=O)[C@H](CC3CCNCC3)NC(=O)[C@@H](Cc3c[nH]c4ccccc34)NC(=O)[C@H](c3ccccc3)NC(=O)[C@@H]3C[C@@H](OC(=O)NCCN)CN3C2=O)cc1 [Example 9] (cyclo([Hyp]([CO-Ethylenediamine])[Phg][dW][Ala(piperidin-4-yl)]Y(Bn)Y(Me))) with its measured EC50.
2.51

This collection of values is drawn from patent US11987648B2.
